Read-out: Vascular cell adhesion molecule 1 (VCAM1), VCAM1 (gene 7412)
Assay: BSK_CASM3C_VCAM1: BioMAP Diversity Plus: CASM3C Assay for Vascular cell adhesion molecule 1 (VCAM1) Biomarker Activity (AID 2283055);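 note: VCAM-1 protein level quantified by ELISA on the cells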
Conditions: primary human coronary artery smooth muscle cells; actives raise or lower the signal
The source made the active and inactive calls. Rule for the calls: active = hit-call score of the fitted dose curve at least 0.9, where 1 is the maximum; inactive = score below 0.9.
Give one outcome, nothing more. List: True (active), False (inactive)

These recorded examples may help you get a feel for the data.
CN=C=S :: False
O=C1C2CC=CCC2C(=O)N1SC(Cl)(Cl)Cl (stereo not drawn) :: True
CCN(CC)C(=O)C(C)Oc1cccc2ccccc12 (stereo not drawn) :: False
CCCC(=NOCC)C1=C(O)CC(CC(C)SCC)CC1=O (stereo not drawn) :: False
CC(C)Nc1nc(Cl)nc(NC(C)C)n1 :: False
CNC(=O)N(C)c1nnc(C(C)(C)C)s1 :: False
CC1(C)C(C=C(Cl)Cl)C1C(=O)OC(C#N)c1cccc(Oc2ccccc2)c1 (stereo not drawn) :: False
COC(=O)NC(=S)Nc1ccccc1NC(=S)NC(=O)OC :: False
COP(=S)(OC)Oc1ccc([N+](=O)[O-])c(C)c1 :: False
COC(=O)NS(=O)(=O)c1ccc(N)cc1 :: False

Please share the test call associated with CS(=O)(=O)c1cc(C(F)(F)F)ccc1C(=O)c1cnoc1C1CC1 .
False

Tell me the recorded outcome of this test for COc1ccc(-c2ccccc2)cc1NNC(=O)OC(C)C .
False

Outcome? CCOc1nc(C(Cl)(Cl)Cl)ns1
False

Give the logged outcome of this assay for the following compound: CCN(CC)c1nc(C)cc(OP(=S)(OC)OC)n1
False

Outcome? CCSC(=O)N1CCCCCC1
False

Hello, I am checking results. What call was entered for CCOC(=O)C(C)OC(=O)c1cc(Oc2ccc(C(F)(F)F)cc2Cl)ccc1[N+](=O)[O-] (stereo not drawn) ?
False
